Experiment: Inhibition of Metallo-beta-lactamase VIM-1 (unknown origin) using FC5 as fluorescence substrate preincubated for 10 mins followed by substrate addition by microplate reader analysis
quantity.kind: pIC50
Please express pIC50 as -log10 of the molar concentration.

Cc1ncsc1CCn1ccnc1C(=O)O; 4.50
O=C(O)c1ncsc1CCc1cccc(C(F)(F)F)c1; 5.68
O=C(O)c1ncsc1CCc1cccc(Br)c1; 5.79

Lookup: Supply pIC50 value. Item: `O=C(O)c1nccn1CCc1cccc(F)c1`
Found: 5.44

Lookup: Supply pIC50 value. Item: `O=C(O)c1nccn1Cc1ccccc1`
Found: 5.38

* * *

Test: Inhibition of Metallo-beta-lactamase IMP-1 (unknown origin) using FC5 as fluorescence substrate preincubated for 10 mins followed by substrate addition by microplate reader analysis
quantity.kind: pIC50
Please express pIC50 as -log10 of the molar concentration.

O=C(O)c1nccn1CCc1ccc(-c2cccs2)cc1; 4.19
CC(c1ccccc1)n1ccnc1C(=O)O (stereo not drawn); 5.39
O=C(O)c1ncsc1CCc1ccc(C(c2ccccc2)(c2ccccc2)c2ccccc2)cc1; 4.33
O=C(O)c1ncsc1CCc1ccc(F)cc1; 4.25

Lookup: Supply pIC50 value. Item: `O=C(O)c1nccn1CCc1ccc(-c2ccncc2)cc1`
Found: 4.99

Lookup: Supply pIC50 value. Item: O=C(O)c1nccn1C(C(=O)O)c1ccccc1 (stereo not drawn)
Found: 5.80

Lookup: Supply pIC50 value. Item: `O=C(O)c1nccn1CCc1ccc(-c2ccccc2)cc1`
Found: 4.67

Lookup: Supply pIC50 value. Item: `O=C(O)c1ncsc1CCc1ccccc1`
Found: 5.53

Lookup: Supply pIC50 value. Item: `O=C(O)c1nccn1CCc1ccccc1`
Found: 3.32

Lookup: Supply pIC50 value. Item: `COc1cccc(CCn2ccnc2C(=O)O)c1`
Found: 4.15

* * *

Test: Inhibition of Metallo-beta-lactamase VIM-5 (unknown origin) using FC5 as fluorescence substrate preincubated for 10 mins followed by substrate addition by microplate reader analysis
quantity.kind: pIC50
Please express pIC50 as -log10 of the molar concentration.

Lookup: Supply pIC50 value. Item: `O=C(O)c1nccn1CCc1cccs1`
Found: 6.19

Lookup: Supply pIC50 value. Item: `O=C(O)c1nccn1CCc1ccc(-c2ccccc2)cc1`
Found: 6.74

Lookup: Supply pIC50 value. Item: `O=C(O)c1ncsc1Cc1ccccc1`
Found: 5.36

* * *

Assay: Inhibition of Metallo-beta-lactamase VIM-5 (unknown origin) using FC5 as fluorescence substrate preincubated for 10 mins followed by substrate addition by microplate reader analysis
quantity.kind: IC50
Output should be the measured figure followed by the unit it is expressed in.

O=C(O)c1ncsc1CCc1ccc(C(F)(F)F)cc1; 1550 nM
O=C(O)c1nccn1CCc1ccc2ccccc2c1; 140 nM
O=C(O)c1ncsc1CCc1ccccc1; 430 nM
CC(Cn1ccnc1C(=O)O)c1ccccc1 (centres undefined); 1080 nM
COc1ccc(CCn2ccnc2C(=O)O)cc1; 1640 nM

Lookup: Supply IC50 value. Item: `O=C(O)c1nccn1CCc1ccc(F)cc1`
Found: 1930 nM

Lookup: Supply IC50 value. Item: `COc1cccc(CCc2scnc2C(=O)O)c1`
Found: 3230 nM

Lookup: Supply IC50 value. Item: `O=C(O)c1ncoc1Cc1ccccc1`
Found: 11800 nM

Lookup: Supply IC50 value. Item: `O=C(O)c1ncsc1CCc1ccccc1F`
Found: 1170 nM

Lookup: Supply IC50 value. Item: `O=C(O)c1nccn1CCc1cccc2ccccc12`
Found: 1070 nM

Lookup: Supply IC50 value. Item: O=C(O)c1nccn1C(C(=O)O)c1ccccc1 (centres undefined)
Found: 9240 nM

Lookup: Supply IC50 value. Item: `O=C(O)c1nccn1CCc1ccc2c(c1)CCO2`
Found: 96200 nM

Lookup: Supply IC50 value. Item: `Cc1ncsc1CCn1ccnc1C(=O)O`
Found: 1990 nM

Lookup: Supply IC50 value. Item: `O=C(Cn1ccnc1C(=O)O)c1ccccc1`
Found: 1850 nM

* * *

Experiment: Inhibition of Metallo-beta-lactamase VIM-5 (unknown origin) using FC5 as fluorescence substrate preincubated for 10 mins followed by substrate addition by microplate reader analysis
pIC50: −log10 of the molar value.
# label = met if pIC50 >= 6 else not met

Completed entries (count: 5):
O=C(O)c1ncsc1CCc1ccc(Br)cc1; met
O=C(O)c1nccn1CCc1ccc(Cl)cc1; met
O=C(O)c1nccn1Cc1ccncc1; not met
O=C(O)c1nccn1CCc1cccc(Cl)c1; not met
O=C(O)c1ncsc1CCc1ccc(C(c2ccccc2)(c2ccccc2)c2ccccc2)cc1; met

Lookup: # check: pIC50 of `O=C(O)c1nccn1Cc1ccccc1` is greater than or equal to 6
Found: not met

* * *

System: Escherichia coli
Experiment: Antibacterial activity against Escherichia coli C1542 expressing VIM-2 assessed as meropenem MIC at 10 ug/ml incubated for 16 to 18 hrs in presence of meropenem by two-fold serial dilution method
Type: functional
Settings: dose 10 µg/ml, time 16-18 hrs
quantity.kind: MIC

Record excerpt, results attached:
O=C(O)c1nccn1CCc1ccc(-c2ccccc2)cc1; ≤ 0.25 µg/mL
O=C(O)c1nccn1CCc1cccc2ccccc12; ≤ 0.25 µg/mL

Lookup: Supply MIC value. Item: O=C(O)c1nccn1C(C(=O)O)c1ccccc1 (stereo not drawn)
Found: 16 µg/mL

Lookup: Supply MIC value. Item: `O=C(O)c1nccn1CCc1ccc(-c2cccs2)cc1`
Found: ≤ 0.25 µg/mL

Lookup: Supply MIC value. Item: `O=C(O)c1nccn1CCc1ccc([N+](=O)[O-])cc1`
Found: ≤ 0.25 µg/mL

* * *

Test: Inhibition of Metallo-beta-lactamase VIM-1 (unknown origin) using FC5 as fluorescence substrate preincubated for 10 mins followed by substrate addition by microplate reader analysis
quantity.kind: IC50 (µM)
Write down the numeric answer in µM and omit the unit.

COc1cccc(CCn2ccnc2C(=O)O)c1; 9.39
COc1ccc(CCn2ccnc2C(=O)O)cc1; 33.7
O=C(O)c1nccn1CCc1ccc(-c2ccc3ccccc3c2)cc1; 96.7
O=C(O)c1ncsc1CCc1ccccc1; 0.42
O=C(O)c1nccn1CCc1ccc2c(c1)CCO2; 190
O=C(O)c1nccn1CCc1ccc(F)cc1; 3.11

Lookup: Supply IC50 value. Item: `O=C(O)c1nccn1CCc1ccc(-c2ccncc2)cc1`
Found: 2.17

Lookup: Supply IC50 value. Item: `O=C(O)c1nccn1CCS(=O)(=O)c1ccccc1`
Found: 112

Lookup: Supply IC50 value. Item: `Nc1ccc(CCn2ccnc2C(=O)O)cc1`
Found: 3.73

Lookup: Supply IC50 value. Item: CC(Cn1ccnc1C(=O)O)c1ccccc1 (stereo not drawn)
Found: 3.29

Lookup: Supply IC50 value. Item: `Cc1ccc(CCn2ccnc2C(=O)O)cc1`
Found: 15.7

Lookup: Supply IC50 value. Item: `O=C(O)c1nccn1CCc1ccc(-c2cccs2)cc1`
Found: 3.98

* * *

Assay: Inhibition of Metallo-beta-lactamase VIM-5 (unknown origin) using FC5 as fluorescence substrate preincubated for 10 mins followed by substrate addition by microplate reader analysis
Catalogue of pIC50 readings, one per entry.
Please express pIC50 as -log10 of the molar concentration.

O=C(O)c1nccn1CCc1cccc(F)c1; 6.18
Nc1ccc(CCn2ccnc2C(=O)O)cc1; 6.35
CCC(c1ccccc1)n1ccnc1C(=O)O (configuration not stated); 5.59
O=C(O)c1nccn1CCc1ccc(-c2ccncc2)cc1; 6.77
COc1cccc(CCn2ccnc2C(=O)O)c1; 4.97

Lookup: Supply pIC50 value. Item: `O=C(O)c1nccn1CCc1ccc(-c2cccs2)cc1`
Found: 7.74

* * *

Catalogue of IC50 readings, one per entry.
Molecular target: Metallo-beta-lactamase type 2 (Bacteria, UniProt C7C422)
Sequence (C7C422 whole entry, the tested form may be a part): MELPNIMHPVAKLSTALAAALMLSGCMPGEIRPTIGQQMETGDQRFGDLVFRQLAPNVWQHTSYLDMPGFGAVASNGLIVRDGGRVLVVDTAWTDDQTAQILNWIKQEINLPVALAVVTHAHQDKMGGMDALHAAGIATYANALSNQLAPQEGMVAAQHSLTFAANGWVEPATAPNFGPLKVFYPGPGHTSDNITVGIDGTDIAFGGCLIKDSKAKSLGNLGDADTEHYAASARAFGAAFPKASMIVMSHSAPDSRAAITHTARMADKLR
Assay: Inhibition of NDM-1 (1 to 270 residues) (unknown origin) expressed in Escherichia coli Transetta (DE3) using FC5 as fluorescence substrate preincubated for 10 mins followed by substrate addition by microplate reader analysis

Record excerpt, results attached:
Cc1ccc(CCn2ccnc2C(=O)O)cc1; > 100 µM
O=C(O)c1nccn1CCc1cccs1; > 100 µM
O=C(O)c1nccn1CCc1ccc2c(c1)CCO2; > 100 µM
O=C(O)c1nncn1Cc1ccccc1; > 100 µM
O=C(Cn1ccnc1C(=O)O)c1ccccc1; > 300 µM
O=C(O)c1ncsc1CCc1cccc(Br)c1; > 100 µM
CC(c1ccccc1)n1ccnc1C(=O)O (centres undefined); > 200 µM
O=C(O)c1ncsc1CCc1ccc(F)cc1; > 100 µM

Lookup: Report IC50 on Metallo-beta-lactamase type 2 (Bacteria, UniProt C7C422) for this entry: `O=C(O)c1ncsc1CCc1ccccc1F`
Found: > 100 µM

Lookup: Report IC50 on Metallo-beta-lactamase type 2 (Bacteria, UniProt C7C422) for this entry: CCC(c1ccccc1)n1ccnc1C(=O)O (centres undefined)
Found: > 300 µM

Lookup: Report IC50 on Metallo-beta-lactamase type 2 (Bacteria, UniProt C7C422) for this entry: `O=C(O)c1nc2ccccc2n1Cc1ccccc1`
Found: > 100 µM

Lookup: Report IC50 on Metallo-beta-lactamase type 2 (Bacteria, UniProt C7C422) for this entry: `O=C(O)c1ncn(Cc2ccccc2)n1`
Found: > 100 µM

Lookup: Report IC50 on Metallo-beta-lactamase type 2 (Bacteria, UniProt C7C422) for this entry: `O=C(O)c1nccn1CCc1ccc(-c2cccs2)cc1`
Found: 126 µM

Lookup: Report IC50 on Metallo-beta-lactamase type 2 (Bacteria, UniProt C7C422) for this entry: `COc1cccc(CCc2scnc2C(=O)O)c1`
Found: 29.9 µM
